Cited source for all entries: patent US20150368338A1

system: IFN-αH2 (human, UniProt P01570 24-189)
run description: cell-based or functional assay
Each entry below carries its reported IC50, ISRE assay.
Give a bare numeral; the unit nM is implied.

Use these answered entries as a reference point.
binder | IC50, ISRE assay [nM]
IFWM3310 (antibody, IgG1, V domains shown) VH: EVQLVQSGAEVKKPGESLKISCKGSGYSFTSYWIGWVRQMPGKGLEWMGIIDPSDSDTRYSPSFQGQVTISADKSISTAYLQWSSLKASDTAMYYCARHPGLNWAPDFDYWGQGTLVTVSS VL: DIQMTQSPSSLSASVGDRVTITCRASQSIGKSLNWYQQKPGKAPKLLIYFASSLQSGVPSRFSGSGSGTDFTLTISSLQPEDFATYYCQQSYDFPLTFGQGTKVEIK | 0.045
IFWM3304 (antibody, IgG1, V domains shown) VH: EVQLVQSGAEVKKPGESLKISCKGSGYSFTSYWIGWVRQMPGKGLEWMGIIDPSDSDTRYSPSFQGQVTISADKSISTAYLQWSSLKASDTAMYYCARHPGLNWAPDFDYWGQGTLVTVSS VL: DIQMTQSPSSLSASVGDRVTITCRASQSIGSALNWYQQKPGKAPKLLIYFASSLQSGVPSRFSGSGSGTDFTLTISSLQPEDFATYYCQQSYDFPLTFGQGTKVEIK | 0.042
IFWM3399 (antibody, IgG1, V domains shown, mAb; IgG1/kappa said of the parent and of selected mAbs; also called IFWB3134) VH: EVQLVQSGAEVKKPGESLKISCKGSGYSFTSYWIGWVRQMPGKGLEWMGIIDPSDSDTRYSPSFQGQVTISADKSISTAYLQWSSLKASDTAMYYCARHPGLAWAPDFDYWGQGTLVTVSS VL: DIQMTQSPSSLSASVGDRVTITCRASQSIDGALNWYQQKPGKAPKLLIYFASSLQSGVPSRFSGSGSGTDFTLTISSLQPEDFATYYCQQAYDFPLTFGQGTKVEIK | 0.013

Now consider the entry below.
Prompt: Look at this binder and give its reported IC50, ISRE assay. IFWM3328 (antibody, IgG1, V domains shown) VH: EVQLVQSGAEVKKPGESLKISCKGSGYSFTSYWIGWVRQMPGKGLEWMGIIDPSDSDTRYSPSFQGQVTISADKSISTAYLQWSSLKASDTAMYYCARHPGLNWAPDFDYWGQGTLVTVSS VL: DIQMTQSPSSLSASVGDRVTITCRASQSINNLNWYQQKPGKAPKLLIYWASSLQSGVPSRFSGSGSGTDFTLTISSLQPEDFATYYCQQGYDTPFTFGQGTKVEIK
Response: 0.44
